Reference for the values: patent US20240043504A1

Molecular target: SARS-CoV-2 RBD extracellular domain expressed with a C-terminal mouse IgG2a (SARS-COV-2 RBD-mFc) (SARS-CoV-2)
measurement name: Kd

# example entries with known answers
{"binder": "mAb10935 (antibody, V domains shown) VH: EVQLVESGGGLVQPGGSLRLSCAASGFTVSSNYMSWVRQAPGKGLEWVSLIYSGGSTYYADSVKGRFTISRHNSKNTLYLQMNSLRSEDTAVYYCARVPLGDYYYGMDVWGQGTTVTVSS VL: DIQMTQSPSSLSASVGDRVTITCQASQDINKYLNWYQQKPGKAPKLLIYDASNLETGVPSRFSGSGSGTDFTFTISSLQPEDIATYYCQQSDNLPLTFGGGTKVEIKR", "Kd": "≤ 0.0261 nM"}
{"binder": "mAb10957 (antibody, V domains shown) VH: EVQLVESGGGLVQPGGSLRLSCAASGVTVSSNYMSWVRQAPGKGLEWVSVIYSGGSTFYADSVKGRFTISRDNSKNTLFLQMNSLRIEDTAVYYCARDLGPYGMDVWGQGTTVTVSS VL: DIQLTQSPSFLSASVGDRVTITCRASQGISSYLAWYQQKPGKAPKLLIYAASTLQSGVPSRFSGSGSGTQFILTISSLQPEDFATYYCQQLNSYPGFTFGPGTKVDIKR", "Kd": "≤ 0.0279 nM"}

IN: Request the reported Kd associated with mAb10984 (antibody, V domains shown) VH: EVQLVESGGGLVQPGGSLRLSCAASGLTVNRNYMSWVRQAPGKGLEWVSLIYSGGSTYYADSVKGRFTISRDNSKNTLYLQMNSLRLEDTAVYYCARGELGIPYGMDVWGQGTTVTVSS VL: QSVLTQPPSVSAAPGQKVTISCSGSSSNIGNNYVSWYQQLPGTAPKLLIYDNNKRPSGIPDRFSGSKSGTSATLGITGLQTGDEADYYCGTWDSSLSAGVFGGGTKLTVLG
OUT: ≤ 0.0249 nM
